Tested on: Mycobacterium tuberculosis
Experiment: Antimycobacterial activity against Mycobacterium tuberculosis RCMB 010126 clinical isolate assessed as inhibition zone after 7 days by MABA
Assay type: functional
Active and inactive are the calls of the source. The rule behind the calls is not given here.
quantity: inhibition zone (IZ)

Examples with answers:
>  <structureAsSmiles>
COc1ccc(/C=N/NC(=O)c2ccc(-c3cccc(Cl)c3)nc2C)cc1OC

>  <inhibition zone (IZ)>
73.58 mm

$$$$
>  <structureAsSmiles>
COc1cc(/C=N/NC(=O)c2ccc(-c3ccc(Cl)cc3)nc2C)cc(OC)c1OC

>  <inhibition zone (IZ)>
68.42 mm

$$$$
>  <structureAsSmiles>
Cc1ccc(/C=N/NC(=O)c2c[nH]c3ccc(Cl)cc3c2=O)cc1

>  <inhibition zone (IZ)>
inactive

$$$$
>  <structureAsSmiles>
COc1cc(/C=N/NC(=O)c2c[nH]c3ccc(Cl)cc3c2=O)cc(OC)c1OC

>  <inhibition zone (IZ)>
inactive

$$$$
>  <structureAsSmiles>
Cc1nc(-c2cccc(Cl)c2)ccc1C(=O)N/N=C/c1ccc(F)cc1

>  <inhibition zone (IZ)>
52.34 mm

$$$$
>  <structureAsSmiles>
Cc1nc(-c2cccc(Cl)c2)ccc1C(=O)N/N=C/c1ccc(Cl)cc1Cl

>  <inhibition zone (IZ)>
41.98 mm

$$$$
>  <structureAsSmiles>
COc1cccc(/C=N/NC(=O)c2ccc(-c3ccc(Cl)cc3)nc2C)c1O

>  <inhibition zone (IZ)>
80.63 mm

$$$$
>  <structureAsSmiles>
O=C(N/N=C/c1ccc(F)cc1)c1c[nH]c2ccc(Cl)cc2c1=O

>  <inhibition zone (IZ)>
inactive

$$$$
>  <structureAsSmiles>
COc1ccc(OC)c(/C=N/NC(=O)c2ccc(-c3cccc(Cl)c3)nc2C)c1

>  <inhibition zone (IZ)>
82.35 mm

$$$$
>  <structureAsSmiles>
COc1ccc(/C=N/NC(=O)c2ccc(-c3ccc(Cl)cc3)nc2C)cc1OC

>  <inhibition zone (IZ)>
61.32 mm

$$$$

response.value for Cc1nc(-c2ccc(Cl)cc2)ccc1C(=O)N/N=C/c1ccc(O)cc1 (field: inhibition zone (IZ)) = 53.21 mm

response.value for O=C(N/N=C/c1ccc(Cl)cc1Cl)c1c[nH]c2ccc(Cl)cc2c1=O (field: inhibition zone (IZ)) = 18.3 mm

response.value for Cc1nc(-c2cccc(Cl)c2)ccc1C(=O)N/N=C/c1ccc(Cl)cc1 (field: inhibition zone (IZ)) = 43.25 mm

----------
Exercise: for every item that follows, state its recorded MIC.
System: Mycobacterium tuberculosis
Assay: Antimycobacterial activity against Mycobacterium tuberculosis RCMB 010126 clinical isolate after 7 days by MABA
Assay type: functional
Conditions: Mycobacterium tuberculosis, RCMB 010126, 168 h
Please state the figure in µg/mL; there is no need to write the unit.

response.value for COc1cc(/C=N/NC(=O)c2ccc(-c3cccc(Cl)c3)nc2C)cc(OC)c1OC (field: MIC) = 0.78

response.value for COc1ccc(/C=N/NC(=O)c2ccc(-c3ccc(Cl)cc3)nc2C)cc1 (field: MIC) = 0.78

response.value for COc1cc(/C=N/NC(=O)c2ccc(-c3ccc(Cl)cc3)nc2C)cc(OC)c1OC (field: MIC) = 0.78
